Recorded melting point, one value per entry.
READOUT LABEL: melting point

COMPOUND STRUCTURE STRING	READOUT LABEL	ASSAY RESULT
COc1ccc(CN2CCCN(c3ccc(Oc4ccc(NC(=O)c5ccc(Cl)c(Cl)c5)cn4)c(C)c3)C2=O)cc1OC	melting point	117 to 118 °C
O=C(Nc1ccc(Oc2ccc(C(=O)N3CCOCC3)cc2)cc1)c1ccc(Cl)c(Cl)c1	melting point	189 to 192 °C
O=C(Nc1ccc(Oc2ccc(C3=CCN(C(=O)CN4CCOCC4)CC3)cc2)cc1)c1ccc(Cl)c(Cl)c1	melting point	195 to 197 °C
O=C(CN1CCOCC1)c1ccc(Oc2ccc(NC(=O)c3ccc(Cl)c(Cl)c3)cc2F)cc1	melting point	177 to 178 °C
O=C(Nc1ccc(Oc2ccc(N3CCN(Cc4ccccc4)C3=O)cc2)nc1)c1ccc(Cl)c(Cl)c1	melting point	186 to 187 °C
CC(=O)N(c1ccc(CCC(=O)N2CCN(Cc3ccc4c(c3)OCO4)CC2)cc1)c1ccc(NC(=O)c2ccc(Cl)c(Cl)c2)cn1	melting point	150 to 165 °C
CCN(CC(=O)N1CCN(Cc2ccc3c(c2)OCO3)CC1)c1ccc(Oc2ccc(NC(=O)c3ccc(Cl)c(Cl)c3)cn2)c(F)c1	melting point	149 to 151 °C
Cc1cc(N2CCCN(CC(=O)N3CCN(Cc4ccc5c(c4)OCO5)CC3)C2=O)ccc1Oc1ccc(NC(=O)c2ccc(C(F)(F)F)cc2)cn1	melting point	182 to 183.5 °C
CCN(CC(=O)N1CCN(Cc2ccc3c(c2)OCO3)CC1)c1ccc(Oc2ccc(NS(=O)(=O)c3ccc(C(F)(F)F)cc3)cn2)c(F)c1	melting point	177.8 to 180.1 °C
CC(=O)N(CC(=O)N1CCN(Cc2ccc3c(c2)OCO3)CC1)c1ccc(Oc2ccc(NC(=O)c3ccc(Cl)c(Cl)c3)cn2)c(F)c1	melting point	233 to 235 °C
O=C(Nc1ccc(Oc2ccc(C(=O)N3CCOCC3)cc2)c(F)c1)c1ccc(Cl)c(Cl)c1	melting point	203 to 204 °C
COc1cc(N(C)CC(=O)N2CCN(Cc3ccoc3)CC2)ccc1Oc1ccc(NC(=O)c2ccc(C(F)(F)F)cc2)cn1	melting point	160 to 164 °C
Cc1cc(N(C)CC(=O)N2CCN(Cc3ccccc3)CC2)ccc1Oc1ccc(NC(=O)c2ccc(Cl)c(Cl)c2)cn1	melting point	111 to 113 °C
Cc1cc(N2CCCN(Cc3ccc4c(c3)OCO4)C2=O)ccc1Oc1ccc(NC(=O)c2ccc(Cl)c(Cl)c2)cn1	melting point	122 to 124 °C

* * *

Counter-ions that a name gives are not always drawn.
Recorded melting point, one value per entry.
READOUT LABEL: melting point

COMPOUND	ASSAY RESULT
Cc1cc(N(C)CC(=O)N2CCN(Cc3ccoc3)CC2)ccc1Oc1ccc(NC(=O)c2ccc(Cl)c(Cl)c2)cn1	116.5 to 118 °C
Cc1cc(N(C)CC(=O)N2CCN(Cc3ccc4c(c3)OCO4)CC2)ccc1Oc1ccc(NC(=O)c2ccc(-n3cccc3)cc2)cn1	163.1 to 166.5 °C
O=C(Nc1ccc(Oc2ccc(C(O)CN3CCOCC3)cc2)c(F)c1)c1ccc(Cl)c(Cl)c1 (stereo not drawn) [compound 2715]	169 to 170 °C
Cc1cc(N(C)CC(=O)N2CCN(Cc3ccccc3)CC2)ccc1Oc1ccc(NC(=O)c2ccc(C(F)(F)F)cc2)cn1	110 to 111 °C
CCOC(=O)c1ccc(N2CCCN(c3ccc(Oc4ccc(NC(=O)c5ccc(C(F)(F)F)cc5)cn4)c(C)c3)C2=O)cc1	160 to 161 °C
CCN(CC(=O)N1CCN(Cc2ccccc2)CC1)c1ccc(Oc2ccc(NC(=O)c3ccc(C(F)(F)F)cc3)cn2)c(C)c1 (as salt: maleate)	165 to 167 °C

* * *

Structures can show the parent of a compound that is named as a salt.
Recorded melting point, one value per entry.

COMPOUND	melting point
CCN(CC(=O)N1CCN(Cc2ccc3c(c2)OCO3)CC1)c1ccc(Oc2ccc(NC(=O)c3ccc(C(F)(F)F)cc3)cn2)cc1	178 to 180 °C
CCN(CC(=O)N1CCN(Cc2ccc3c(c2)OCO3)CC1)c1ccc(Oc2ccc(NC(=O)c3ccc(C(F)(F)F)cc3)cn2)c(F)c1	170 to 172 °C
CN(CC(=O)N1CCN(Cc2ccc3c(c2)OCO3)CC1)c1ccc(Oc2ccc(NC(=O)c3ccc(C(F)(F)F)cc3)cn2)c(F)c1	220 to 221 °C
O=C(Nc1ccc(Oc2ccc(N3CCN(C(=O)c4ccc5c(c4)OCO5)CC3)cc2)cc1)c1ccc(Cl)c(Cl)c1	116 to 118 °C
Cc1cc(N(C)CC(=O)N2CCN(Cc3ccoc3)CC2)ccc1Oc1ccc(NC(=O)c2ccc(C(F)(F)F)cc2)cn1 (as salt: hydrochloride)	158.5 to 161 °C

* * *

Recorded melting point, one value per entry.
Where a name gives a salt, the structure may show the parent alone.

MOLECULE	melting point
O=C(C1CCN(c2ccc(Oc3ccc(NS(=O)(=O)c4ccc(Cl)c(Cl)c4)cn3)cc2)CC1)N1CCN(Cc2ccccc2)CC1 [compound 2710]	185 to 189 °C
Cc1cc(N2CCN(Cc3ccc4c(c3)OCO4)C2=O)ccc1Oc1ccc(NC(=O)c2ccc(C(F)(F)F)cc2)cn1 [compound 1504]	188 to 189 °C
O=C(Nc1ccc(Oc2ccc(C(O)CN3CCOCC3)cc2)c(F)c1)c1ccc(Cl)c(Cl)c1 (stereo not shown) [compound 2677]	142 to 145 °C
O=C(Nc1ccc(Oc2ccc(N3CCN(Cc4ccccc4)C3=O)cc2)nc1)c1ccc(C(F)(F)F)cc1 [compound 1181]	203 to 204 °C
CC(=O)N(CC(=O)N1CCN(Cc2ccccc2)CC1)c1ccc(Oc2ccc(NC(=O)c3ccc(C(F)(F)F)cc3)cn2)cc1 [compound 771]	161 to 162 °C
CC(=O)N(CC(=O)N1CCN(Cc2ccc3c(c2)OCO3)CC1)c1ccc(Oc2ccc(NC(=O)c3ccc(Cl)c(Cl)c3)cn2)c(C)c1 [compound 725]	216 to 217 °C
Cc1cc(N(C)CC(=O)N2CCN(Cc3ccc4c(c3)OCO4)CC2)ccc1Oc1ccc(NC(=O)c2ccc(Cl)c(Cl)c2)cn1 (as salt: hydrochloride) [compound 1512]	183 to 185 °C (dec.)
